Tested on: CP335
measurement description: qHTS profiling for inhibitors of Plasmodium falciparum proliferation (AID 504749); further: nearly all actives have a fitted effect of over 60% in size
assay context: P. falciparum in erythrocytes, SYBR Green DNA, 72 h; series mostly up to 28.7 µM
Inconclusive results are not listed. Active and inactive are the calls of the source. The call rests on the fitted dose curve; in most records, active means well fitted inhibition curve with a large enough effect; inconclusive means small, poorly fitted or top-dose-only effect; inactive means flat fitted curve, though single readings scatter.
Form entry, call: pick from t = active, f = inactive

Below, 5 compounds whose answers are already recorded.
> print(dat)
                                   compound  discrete.label
1       CCCCCCCCCCCCCCCC[N+](C)(C)Cc1ccccc1               t
2               CCCCCCCCCCCCCCCC[n+]1ccccc1               t
3  CN1CCC(Nc2ncc3ncnc(Nc4ccc(F)c(Cl)c4)c3n2)CC1               t
4  CN1CCCN(C(c2ccccc2)c2ccc(Cl)cc2)CC1 (configuration not stated)               t
5                 CCCCCCCCCCCCCC[N+](C)(C)C               t

*Q* Answer briefly: the call reported for O=C(Nc1ccc(Cl)cc1)Nc1ccc(Cl)c(Cl)c1 in this assay.
*A* t

*Q* Further, for O=S(=O)(O)c1ccc2nc(-c3ccccc3)[nH]c2c1 ?
*A* f

Source: PubChem BioAssay (NCATS)
